- Test system: NCI-H23 lung
- protocol_text: NCI tumour cell line growth inhibition, 48 h
# reported TGI; entries follow
readout_type: TGI (µM)

INSERT INTO assay_data (compound, reading_qualifier, data_value) VALUES
  ('COc1cc2c3c(c4cc(OC)c(OC)cc4c2cc1OC)[C@H](O)[C@@H]1CCCN1C3', '=', 1.93),
  ('NC(=O)Oc1cc(OC(N)=O)cc(N(CCCl)CCCl)c1', '=', 63),
  ('COc1cc(CCCC(O)COc2cccc3c2C2(O)CCCCCC32)cc(OC)c1 (centres undefined)', '=', 32.6),
  ('Cc1cc(NCC2CC/C(=C\C=C\c3ccccc3)C2=O)no1 (centres undefined)', '>', 100);

* * *

- System: UACC-62 melanoma
- protocol_text: NCI tumour cell line growth inhibition, 48 h
readout_type: TGI (µM)

INSERT INTO assay_data (compound, readout_type, reading_qualifier, data_value) VALUES
  ('CC(C)(CCCCC(C)(C)NCC1COc2ccccc2O1)NCC1COc2ccccc2O1 (stereo not given)', 'TGI', '=', 9.93),
  ('CC1C(=O)N(C)C2(CO)C(=O)O[C@H](C)C12O (stereo not given in full)', 'TGI', '>', 100),
  ('CN1CCN(Cc2ccc(Nc3ncc(Cl)c(Nc4ccccc4S(=O)(=O)N(C)C)n3)cc2)CC1', 'TGI', '=', 0.18),
  ('C=C(Cl)C(Br)(CBr)CCC(Br)C(C)(C)Br (stereo not given)', 'TGI', '>', 10),
  ('COc1ccc(OC)c2cc(C3(C)SCCCS3)ccc12', 'TGI', '>', 100),
  ('COc1cc(C(=O)n2nc(N3CCN(C)CC3)c3cc(N)ccc32)cc(OC)c1OC', 'TGI', '=', 17.7),
  ('O=C(/C=C\c1ccccc1-c1ccccc1)c1ccccc1', 'TGI', '>', 100),
  ('COC(=O)C(Cc1c[nH]c2ccccc12)NP(=O)(O)OCC1OC(n2cc(F)c(=O)[nH]c2=O)CC1O (stereo not given)', 'TGI', '>', 100),
  ('COc1ccc2c(c1)/C(=C\c1cccc(/C=C3/C(=O)Nc4ccc(OC)cc43)n1)C(=O)N2', 'TGI', '=', 2.28),
  ('COc1cc(C2S/C(=C/c3ccccc3)C(=O)N2c2ccc([N+](=O)[O-])cc2)cc(OC)c1OC (stereo not given)', 'TGI', '>', 100);

* * *

# reported TGI; entries follow
- Test system: NCI-H460 lung
- protocol_text: NCI tumour cell line growth inhibition, 48 h
readout_type: TGI (µM)

INSERT INTO measurements (compound, target, readout_type, reading_qualifier, data_value) VALUES
  ('O=C1c2cccnc2C(=O)c2c1nc1ccccc1c2-c1cncc(-c2c3c(nc4ccccc24)C(=O)c2cccnc2C3=O)c1', 'NCI-H460 lung', 'TGI', '=', 0.516),
  ('O=C1/C(=C/c2ccc(Cl)cc2)CN(C(=O)C(Cl)Cl)C/C1=C\c1ccc(Cl)cc1', 'NCI-H460 lung', 'TGI', '=', 0.822),
  ('COC(=O)c1nc2c3c(cccc3c1C(=O)OC)Nc1ccccc1-2', 'NCI-H460 lung', 'TGI', '=', 77.9),
  ('Cc1ccnc2c1ccc1nc3ccccc3n12', 'NCI-H460 lung', 'TGI', '>', 100),
  ('CCOC(=O)c1c(-c2ccccc2)[nH]c2ccc(Cl)cc2c1=O', 'NCI-H460 lung', 'TGI', '>', 100),
  ('CCOn1cc(C2=C(c3c[nH]c4ccccc34)C(=O)NC2=O)c2ccccc21', 'NCI-H460 lung', 'TGI', '=', 15.4),
  ('O=C(NCC#CCO)C(F)(F)F', 'NCI-H460 lung', 'TGI', '>', 100),
  ('COc1ccc(/C=C/[N+](=O)[O-])cc1', 'NCI-H460 lung', 'TGI', '=', 55.3),
  ('NC(=O)Oc1cc(OC(N)=O)cc(N(CCCl)CCCl)c1', 'NCI-H460 lung', 'TGI', '=', 26.9),
  ('COc1ccc2c(c1)/C(=C\c1cccc(/C=C3/C(=O)Nc4ccc(OC)cc43)n1)C(=O)N2', 'NCI-H460 lung', 'TGI', '>', 24.6),
  ('CN(CCO)c1nc2c(c(=O)[nH]1)CNCC2', 'NCI-H460 lung', 'TGI', '>', 100),
  ('COc1cnc2c(c1)C(=O)c1c-2n(CCCN2CCN(C)CC2)c(=O)c2cc(Cl)ccc12', 'NCI-H460 lung', 'TGI', '=', 13.8),
  ('O=C(O)CC1(C(=O)O)CCCCC1', 'NCI-H460 lung', 'TGI', '>', 100),
  ('CC1OC(O)CC(OC(=O)c2ccccc2)C1OC(=O)c1ccccc1 (configuration not stated)', 'NCI-H460 lung', 'TGI', '>', 100),
  ('COC(=O)C#Cc1ccc([N+](=O)[O-])cc1', 'NCI-H460 lung', 'TGI', '=', 38.7),
  ('COc1cc2c3c(n(C4CCNCC4)c(=O)c2cc1OC)-c1cc2c(cc1C3=O)OCO2', 'NCI-H460 lung', 'TGI', '=', 0.276),
  ('CCN(CC)CCOc1cc2c(C(=O)OC)c(C)oc2cc1C(C)=O', 'NCI-H460 lung', 'TGI', '=', 91.8),
  ('COc1ccc(F)cc1C(=O)c1cnc(NC2CCN(S(C)(=O)=O)CC2)nc1N', 'NCI-H460 lung', 'TGI', '>', 25),
  ('COC(=O)C(=O)C(C(=O)C(=O)Nc1cc([N+](=O)[O-])ccc1[N+](=O)[O-])c1nc2ccc(C(=O)c3ccccc3)cc2[nH]c1=O (configuration not stated)', 'NCI-H460 lung', 'TGI', '>', 100),
  ('CC(Oc1ccc(Cl)cc1Cl)C(=O)NN1C(=O)CSC1c1ccc(Cl)cc1 (configuration not stated)', 'NCI-H460 lung', 'TGI', '>', 100),
  ('CN(C)CCN1C(=O)c2ccccc2C1(O)c1ccc(Cl)cc1 (configuration not stated)', 'NCI-H460 lung', 'TGI', '>', 100),
  ('C=CCN(N=O)C(=O)N(CCC)CCCCC(NC(C)=O)C(=O)NCc1ccccc1 (configuration not stated)', 'NCI-H460 lung', 'TGI', '>', 100);

* * *

- System: DMS 114 small cell lung
- protocol_text: NCI tumour cell line growth inhibition, 48 h
# reported TGI; entries follow
readout_type: TGI (µM)

INSERT INTO assay_data (compound, readout_type, reading_qualifier, data_value) VALUES
  ('Cc1c(CCl)c(=O)oc2c(C)c3occ(CCl)c(=O)c3cc12', 'TGI', '=', 41.8),
  ('CSc1sc(=S)sc1SC', 'TGI', '>', 100),
  ('CC(=O)Nc1ccc(/C=C/C(=O)c2sc(C(N)=S)nc2C)cc1', 'TGI', '>', 100),
  ('Nc1ccc(C(=O)NN2C(=O)C(Cl)C2c2ccccc2O)cc1 (centres undefined)', 'TGI', '=', 79.6);

* * *

# reported log10 TGI; entries follow
- System: SNB-75 CNS
- protocol_text: NCI tumour cell line growth inhibition, 48 h
readout_type: log10 TGI (log10 of the value in µM)

INSERT INTO assay_data (compound, readout_type, data_value) VALUES
  ('O=C1c2cccnc2C(=O)c2c1nc1ccccc1c2-c1cncc(-c2c3c(nc4ccccc24)C(=O)c2cccnc2C3=O)c1', 'log10 TGI', 0.20),
  ('NC(=O)Oc1cc(OC(N)=O)cc(N(CCCl)CCCl)c1', 'log10 TGI', 1.40),
  ('CC(C)C(Cl)CC/C(CBr)=C(\Cl)CCl (stereo unspecified)', 'log10 TGI', 1.23),
  ('CSC(=S)NNC(=O)c1ccncc1', 'log10 TGI', 1.82),
  ('CC(C)=CCC[C@@H](C)C1=C(Nc2ccccc2)C(O)=C(C)C(=O)C1=O', 'log10 TGI', 1.19);

* * *

# reported TGI; entries follow
- System: NCI-H522 lung
- protocol_text: NCI tumour cell line growth inhibition, 48 h
readout_type: TGI (µM)

INSERT INTO measurements (molecule, target, readout_units, reading_qualifier, data_value) VALUES
  ('CCOC(=O)c1c(Cl)c2c(n1Cc1cc(OC)cc(OC)c1)-c1oncc1CCC2', 'NCI-H522 lung', 'µM', '=', 0.195),
  ('CC(C)(CCCCC(C)(C)NCC1COc2ccccc2O1)NCC1COc2ccccc2O1 (centres undefined)', 'NCI-H522 lung', 'µM', '>', 10),
  ('O=C(O)Cc1[nH]cnc1C(=O)O', 'NCI-H522 lung', 'µM', '>', 100),
  ('CC1=[N+]([O-])C(C)(C)N(O)C1(C)C', 'NCI-H522 lung', 'µM', '>', 100),
  ('CCC[CH2][Sn]([CH2]CCC)([S]C1=NCCS1)[S]C1=NCCS1', 'NCI-H522 lung', 'µM', '=', 0.0562),
  ('CO[C@H](C(=O)N[C@@H](CCCCNC(=O)OCc1ccccc1)C(=O)OC(C)(C)C)[C@@H]1Cc2cc3cc(OC4CC(OC5CC(O)C(O)C(C)O5)C(O)C(C)O4)c(C)c(O)c3c(O)c2C(=O)[C@H]1OC1CC(OC2CC(OC3CC(C)(O)C(O)C(C)O3)C(O)C(C)O2)C(O)C(C)O1 (some centres undefined)', 'NCI-H522 lung', 'µM', '=', 3.15),
  ('C/C(=C\COP(=O)(O)OP(=O)(O)O)CC/C=C(\C)CNc1ccc([N+](=O)[O-])cc1', 'NCI-H522 lung', 'µM', '>', 100),
  ('COc1cc2c3c(n(C4CCNCC4)c(=O)c2cc1OC)-c1cc2c(cc1C3=O)OCO2', 'NCI-H522 lung', 'µM', '=', 2.99),
  ('O=c1[nH]c(=O)n(C2CC(O)C(CO)O2)c2nc3ccc4ccccc4c3nc12 (centres undefined)', 'NCI-H522 lung', 'µM', '>', 100),
  ('O=C1OC2(c3ccc(O)cc3Oc3cc(O)ccc32)c2c1c(-c1ccccc1)c(-c1ccccc1)c(-c1ccccc1)c2-c1ccccc1', 'NCI-H522 lung', 'µM', '=', 32.6),
  ('O=C(C=Nc1ccccc1C(=O)[O-])c1cccs1.O=C(C=Nc1ccccc1C(=O)[O-])c1cccs1.[Cu+2]', 'NCI-H522 lung', 'µM', '>', 100),
  ('O=C(O)CCSc1nnc(COc2ccc(Cl)cc2)n1-c1ccccc1', 'NCI-H522 lung', 'µM', '>', 100),
  ('Cc1ccnc2nc3[nH]c4ccccc4c3cc12', 'NCI-H522 lung', 'µM', '>', 100),
  ('CC(CCC(=O)O)[C@H]1CCC2[C@H]3C(CC(=O)[C@@]21C)[C@@]1(C)CCC(O)C[C@H]1C[C@@H]3O (some centres undefined)', 'NCI-H522 lung', 'µM', '>', 100),
  ('CC(C)C(Cl)CC/C(CBr)=C(\Cl)CCl (centres undefined)', 'NCI-H522 lung', 'µM', '=', 2.49),
  ('COC(=O)Nc1nc2ccc(Oc3ccc(NC(=O)Nc4cccc(Cl)c4)cc3)cc2[nH]1', 'NCI-H522 lung', 'µM', '=', 4.07),
  ('COC(=O)c1c2c(c(C)[n+]([O-])c1C)C(=O)C(NCc1ccc(F)c(F)c1)=CC2=O', 'NCI-H522 lung', 'µM', '=', 3.75),
  ('CSc1sc(=S)sc1SC', 'NCI-H522 lung', 'µM', '>', 100),
  ('CN1CCN(Cc2ccc(NC(=O)c3cncc(C#Cc4c(N)ncc5cc(F)ccc45)c3)cc2C(F)(F)F)CC1', 'NCI-H522 lung', 'µM', '=', 5.45);

Data origin, for the record: PubChem BioAssay (NCI)
